assay notes: Calibration of free NIR probe/sensor by bilirubin titration (cuvette fluorometry, fit with equation 1)
Type: binding
reported conditions: effect of fluorophore (cysteine) position; responder probe labeled with 700DX-maleimide
property name: pKd
Recall that pKd is obtained by taking minus log10 of the concentration measured in molar.

molecule: 98C-C2XH11-700DXM: rIFABP mutein MGI-KR14-14R 18L 27A 38V 60R 73F 98C 106L 115R 117D 131D-C2XH11 labeled with LICOR 700DX-maleimide (protein, LICOR 700DX-maleimide label; mutated bf sensitive probe, rIFABP mutein MGI-KR14-14R 18L 27A 38V 60R 73F 98C 106L 115R 117D 131D-C2XH11 labeled with LICOR 700DX-maleimide) MGIAFDGTWRVDRNENRERFLERMGINVVARRLGAHDNLRVTITQEGNRFTVRESSNFRNIDRVFELGVDFAYSLFDGTELTGTWTMEGNRLVGRFRRVDCGRELIAVLEISGNELIRTDTYEGVEARRIFRRDRGAASHHHHHHSHRATPNTSPHHHHHHH
pKd: 7.89

Switching to the query record.
If you can, please state the reported pKd value of 26C-C2XH11-700DXM: rIFABP mutein MGI-KR14-14R 18L 26C 27A 38V 60R 73F 106L 115R 117D 131D-C2XH11 labeled with LICOR 700DX-maleimide (protein, C2XH11 tag; LICOR 700DX-maleimide label; mutated bf sensitive probe, rIFABP mutein MGI-KR14-14R 18L 26C 27A 38V 60R 73F 106L 115R 117D 131D-C2XH11 labeled with LICOR 700DX-maleimide) MGIAFDGTWRVDRNENRERFLERMGINVCARRLGAHDNLRVTITQEGNRFTVRESSNFRNIDRVFELGVDFAYSLFDGTELTGTWTMEGNRLVGRFRRVDNGRELIAVLEISGNELIRTDTYEGVEARRIFRRDRGAASHHHHHHSHRATPNTSPHHHHHHH .
7.68
